Provenance of the data: patent US10266526B2

biological target: SMYD3 (Homo sapiens (Human), UniProt Q9H7B4); assay: SMYD3 biochemical assay (SMYD3 enzyme assay on MEKK2 protein substrate, 3H-SAM scintillation proximity assay); conditions: read-out: SMYD3 Biochem IC50
Sequence (Q9H7B4 whole entry): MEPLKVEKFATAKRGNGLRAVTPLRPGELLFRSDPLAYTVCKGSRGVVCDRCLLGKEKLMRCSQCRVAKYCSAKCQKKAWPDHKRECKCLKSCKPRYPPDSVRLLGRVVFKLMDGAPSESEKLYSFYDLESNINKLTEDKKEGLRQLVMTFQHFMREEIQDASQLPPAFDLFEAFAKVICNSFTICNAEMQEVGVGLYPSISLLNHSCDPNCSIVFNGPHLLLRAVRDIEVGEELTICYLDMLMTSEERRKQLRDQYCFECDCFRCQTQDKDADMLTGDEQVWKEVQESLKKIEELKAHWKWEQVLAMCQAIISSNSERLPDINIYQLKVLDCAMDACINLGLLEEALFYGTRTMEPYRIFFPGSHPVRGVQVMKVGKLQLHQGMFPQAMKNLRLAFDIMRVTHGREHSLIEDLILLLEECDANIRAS
pIC50: −log10 of the molar value.
metric.name: pIC50

Here is how some molecules turned out for pIC50.
molecule | pIC50
COc1cccc2[nH]cc(C(=O)N[C@H]3CC[C@H](NC(=O)CCN)CC3)c12 | < 4.00
N[C@H]1CC[C@H](NC(=O)c2c[nH]c3ccccc23)CC1 | < 4.00
N[C@H]1CC[C@H](NC(=O)c2cn3ccsc3n2)CC1 | < 4.00
N[C@H]1CC[C@H](NC(=O)c2ccc(O)cn2)CC1 | < 4.00
CC(NC(=O)c1nc2ccc(F)cc2s1)C1CCN(C(=O)[C@H](C)N)CC1 (stereo partly drawn) | 4.29

Give pIC50 for each listed item.
1. Nc1ncncc1C(=O)N[C@H]1CC[C@H](N)CC1
2. NCCC(=O)N[C@H]1CC[C@H](NC(=O)c2ccc(N)nc2)CC1
3. N[C@H]1CC[C@H](NC(=O)c2ccc(Cl)cc2C(F)(F)F)CC1
4. N[C@H]1CC[C@H](NC(=O)c2cccc3c2OC(F)(F)O3)CC1
5. NCCC(=O)N[C@H]1CC[C@H](NC(=O)c2cc3cc(F)ccc3[nH]2)CC1
6. Cc1cccc(Cn2nc(C(C)(C)C)cc2C(=O)N[C@H]2CC[C@H](N)CC2)c1
7. N[C@H]1CC[C@H](NC(=O)c2cc(O)c3ccccc3n2)CC1
8. Cn1c(C(=O)N[C@H]2CC[C@H](N)CC2)cc2ccccc21

< 4.00
< 4.00
< 4.00
< 4.00
< 4.00
< 4.00
< 4.00
< 4.00

Give pIC50 for each listed item.
1. Cc1nc2ccccc2c(C(=O)N[C@H]2CC[C@H](NC(=O)CCN)CC2)c1N
2. CC(NC(=O)c1ccc2cnccc2c1)C1CCN(C(=O)[C@H](C)N)CC1 (stereo partly drawn)

4.50
< 4.00
